# TARGET_UNDER_TEST: sucrase
# EXPERIMENT: Sucrase inhibitory activity assay (sucrose substrate, glucose oxidase method)
# Type: biochemical, Leuconostoc mesenteroides
# CONDITION: L. mesenteroides sucrase, sucrose substrate, pH 7.0, 37 °C; mean ± SD
Recorded IC50 values for a group of compounds are listed next.
RECORDED_METRIC: IC50 (µM)

1) O=c1c(O)c(-c2ccc(O)c(O)c2)oc2cc(O)cc(O)c12 [quercetin, reference compound]    19
2) O=C(O[C@@H]1Cc2c(O)cc(O)cc2O[C@@H]1c1ccc(O)c(O)c1)c1cc(O)c(O)c(O)c1 [ECG, epicatechin gallate]    18.3
3) Oc1cc(O)c2c(c1)O[C@H](c1ccc(O)c(O)c1)[C@H](O)C2 [EC, epicatechin]    18.9
4) O=C(OC1Cc2c(O)cc(O)c(C3c4c(O)cc(O)cc4OC(c4ccc(O)c(O)c4)C3O)c2OC1c1ccc(O)c(O)c1)c1cc(O)c(O)c(O)c1 (stereo not drawn) [B2-3’-O-gallate, epicatechin-(4β,8)-epicatechingallate]    6.91

----------
# TARGET_UNDER_TEST: sucrase
# EXPERIMENT: Sucrase inhibition kinetics (Lineweaver–Burk and Dixon plots)
# Format: biochemical, Leuconostoc mesenteroides
# CONDITION: Dixon plot, sucrose substrate; binding to sucrase; read-out: Ki sucrase (competitive inhibition constant)
RECORDED_METRIC: Ki

1. O=c1c(O)c(-c2ccc(O)c(O)c2)oc2cc(O)cc(O)c12 [quercetin, reference compound]    14.1 µM
2. O=C(O[C@@H]1Cc2c(O)cc(O)cc2O[C@@H]1c1ccc(O)c(O)c1)c1cc(O)c(O)c(O)c1 [ECG, epicatechin gallate]    8.58 µM
3. O=C(OC1Cc2c(O)cc(O)c(C3c4c(O)cc(O)cc4OC(c4ccc(O)c(O)c4)C3O)c2OC1c1ccc(O)c(O)c1)c1cc(O)c(O)c(O)c1 (stereo not drawn) [B2-3’-O-gallate, epicatechin-(4β,8)-epicatechingallate]    6.05 µM
4. Oc1cc(O)c2c(c1)O[C@H](c1ccc(O)c(O)c1)[C@H](O)C2 [EC, epicatechin]    13.7 µM

----------
# TARGET_UNDER_TEST: maltase (Saccharomyces cerevisiae)
# Construct: purchased Sigma Chemical Co. (St. Louis, MO, USA)
# EXPERIMENT: Maltase inhibitory activity assay (maltose substrate, glucose oxidase method)
# Type: biochemical
RECORDED_METRIC: IC50 (µM)

1. O=C(O[C@@H]1Cc2c(O)cc(O)cc2O[C@@H]1c1ccc(O)c(O)c1)c1cc(O)c(O)c(O)c1 [ECG, epicatechin gallate]    3.64

----------
# TARGET_UNDER_TEST: maltase (Saccharomyces cerevisiae, UniProt P53341)
# Construct: purchased Sigma Chemical Co. (St. Louis, MO, USA)
# Sequence (P53341 whole entry): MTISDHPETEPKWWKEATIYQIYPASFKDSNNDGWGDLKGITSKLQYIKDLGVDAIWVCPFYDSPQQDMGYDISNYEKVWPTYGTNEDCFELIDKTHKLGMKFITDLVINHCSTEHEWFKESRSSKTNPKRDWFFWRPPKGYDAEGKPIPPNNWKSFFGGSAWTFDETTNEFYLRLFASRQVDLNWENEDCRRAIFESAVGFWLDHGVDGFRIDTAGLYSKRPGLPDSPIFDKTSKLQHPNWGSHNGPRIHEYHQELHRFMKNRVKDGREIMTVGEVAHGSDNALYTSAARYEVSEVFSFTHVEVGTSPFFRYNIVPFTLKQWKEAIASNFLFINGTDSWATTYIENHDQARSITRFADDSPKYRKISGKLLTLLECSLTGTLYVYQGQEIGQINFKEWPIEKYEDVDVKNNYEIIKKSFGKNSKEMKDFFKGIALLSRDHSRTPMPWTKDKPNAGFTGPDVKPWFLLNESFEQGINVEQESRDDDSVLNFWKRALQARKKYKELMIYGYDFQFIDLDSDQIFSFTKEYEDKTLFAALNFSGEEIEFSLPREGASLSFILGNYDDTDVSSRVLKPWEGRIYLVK
# EXPERIMENT: Maltase inhibition kinetics (Lineweaver–Burk and Dixon plots)
# Assay type: biochemical
pKi: −log10 of the molar value.
RECORDED_METRIC: pKi

1. O=C(O[C@@H]1Cc2c(O)cc(O)cc2O[C@@H]1c1ccc(O)c(O)c1)c1cc(O)c(O)c(O)c1 [ECG, epicatechin gallate]    5.50

----------
# TARGET_UNDER_TEST: maltase (Saccharomyces cerevisiae)
# Construct: purchased Sigma Chemical Co. (St. Louis, MO, USA)
# EXPERIMENT: Maltase inhibition kinetics (Lineweaver–Burk and Dixon plots)
# Assay type: biochemical
# CONDITION: read-out: Ki maltase (competitive inhibition constant)
RECORDED_METRIC: Ki (µM)

1) Oc1cc(O)c2c(c1)O[C@H](c1ccc(O)c(O)c1)[C@H](O)C2 [EC, epicatechin]    7.02
